target_system: PARP1 (PARP-1);Pol gamma A (catalytic subunit);Pol gamma B deltaI4 (accessory subunit) (Homo sapiens?;Homo sapiens?;Homo sapiens?) (UniProt P09874+P54098+Q9UHN1)
Sequence (P09874 whole entry, stated change not applied, chain 1 of 3): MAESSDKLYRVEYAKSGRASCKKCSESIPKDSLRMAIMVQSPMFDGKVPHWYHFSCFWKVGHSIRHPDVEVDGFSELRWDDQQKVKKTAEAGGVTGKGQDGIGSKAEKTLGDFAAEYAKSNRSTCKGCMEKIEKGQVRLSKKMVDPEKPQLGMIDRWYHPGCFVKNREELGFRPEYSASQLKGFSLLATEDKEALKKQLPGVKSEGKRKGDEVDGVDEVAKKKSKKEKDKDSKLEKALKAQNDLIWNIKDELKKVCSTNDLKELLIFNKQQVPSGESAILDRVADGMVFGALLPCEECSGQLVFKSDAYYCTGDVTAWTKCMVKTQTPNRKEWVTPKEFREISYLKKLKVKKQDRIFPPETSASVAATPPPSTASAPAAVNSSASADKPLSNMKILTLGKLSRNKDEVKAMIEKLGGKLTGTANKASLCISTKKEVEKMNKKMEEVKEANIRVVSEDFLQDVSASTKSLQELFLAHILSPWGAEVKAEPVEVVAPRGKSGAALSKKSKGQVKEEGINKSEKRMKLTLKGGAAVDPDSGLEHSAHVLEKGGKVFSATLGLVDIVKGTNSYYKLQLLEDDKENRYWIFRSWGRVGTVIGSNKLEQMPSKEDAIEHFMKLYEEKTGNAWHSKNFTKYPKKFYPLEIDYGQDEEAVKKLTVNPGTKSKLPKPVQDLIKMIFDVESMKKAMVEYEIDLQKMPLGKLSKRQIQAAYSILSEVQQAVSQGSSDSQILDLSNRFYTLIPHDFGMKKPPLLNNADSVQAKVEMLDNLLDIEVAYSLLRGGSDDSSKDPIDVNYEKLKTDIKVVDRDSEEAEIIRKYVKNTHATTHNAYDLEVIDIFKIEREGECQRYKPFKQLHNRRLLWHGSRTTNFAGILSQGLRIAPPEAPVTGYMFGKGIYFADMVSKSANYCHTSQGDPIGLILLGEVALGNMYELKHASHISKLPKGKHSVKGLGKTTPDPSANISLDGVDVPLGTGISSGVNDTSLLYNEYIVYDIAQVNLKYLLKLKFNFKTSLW
Sequence (P54098 30-1239, stated change not applied, chain 2 of 3): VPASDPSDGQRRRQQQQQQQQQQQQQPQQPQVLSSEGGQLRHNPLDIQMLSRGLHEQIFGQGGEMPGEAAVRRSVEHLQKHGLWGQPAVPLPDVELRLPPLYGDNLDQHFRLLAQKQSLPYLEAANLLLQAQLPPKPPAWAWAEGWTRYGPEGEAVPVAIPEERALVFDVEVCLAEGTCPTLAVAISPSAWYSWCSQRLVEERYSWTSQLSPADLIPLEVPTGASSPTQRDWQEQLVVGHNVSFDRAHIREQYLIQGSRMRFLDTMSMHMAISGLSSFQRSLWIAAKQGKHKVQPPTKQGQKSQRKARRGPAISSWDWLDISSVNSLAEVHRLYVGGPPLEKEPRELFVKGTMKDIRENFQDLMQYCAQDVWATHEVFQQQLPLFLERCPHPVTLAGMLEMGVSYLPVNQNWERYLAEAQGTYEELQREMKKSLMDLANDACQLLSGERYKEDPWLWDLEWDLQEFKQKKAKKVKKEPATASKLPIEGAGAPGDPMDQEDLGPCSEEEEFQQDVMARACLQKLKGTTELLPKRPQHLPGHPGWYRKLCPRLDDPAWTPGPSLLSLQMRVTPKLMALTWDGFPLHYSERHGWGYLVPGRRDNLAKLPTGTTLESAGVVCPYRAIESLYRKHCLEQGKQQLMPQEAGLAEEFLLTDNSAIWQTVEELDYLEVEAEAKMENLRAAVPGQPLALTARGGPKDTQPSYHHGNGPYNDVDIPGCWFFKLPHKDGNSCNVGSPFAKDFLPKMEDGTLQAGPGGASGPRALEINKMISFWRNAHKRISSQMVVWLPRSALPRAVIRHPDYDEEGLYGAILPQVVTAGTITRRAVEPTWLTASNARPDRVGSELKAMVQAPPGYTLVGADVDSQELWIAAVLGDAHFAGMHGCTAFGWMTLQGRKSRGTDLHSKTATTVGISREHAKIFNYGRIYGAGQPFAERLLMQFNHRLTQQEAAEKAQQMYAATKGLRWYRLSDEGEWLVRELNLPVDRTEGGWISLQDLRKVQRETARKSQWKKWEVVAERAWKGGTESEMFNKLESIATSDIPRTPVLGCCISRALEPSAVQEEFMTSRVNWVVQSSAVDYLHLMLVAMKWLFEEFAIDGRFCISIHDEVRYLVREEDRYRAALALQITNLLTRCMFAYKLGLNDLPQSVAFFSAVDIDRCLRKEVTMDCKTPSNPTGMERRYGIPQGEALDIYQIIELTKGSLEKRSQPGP
Sequence (Q9UHN1 whole entry, stated change not applied, chain 3 of 3): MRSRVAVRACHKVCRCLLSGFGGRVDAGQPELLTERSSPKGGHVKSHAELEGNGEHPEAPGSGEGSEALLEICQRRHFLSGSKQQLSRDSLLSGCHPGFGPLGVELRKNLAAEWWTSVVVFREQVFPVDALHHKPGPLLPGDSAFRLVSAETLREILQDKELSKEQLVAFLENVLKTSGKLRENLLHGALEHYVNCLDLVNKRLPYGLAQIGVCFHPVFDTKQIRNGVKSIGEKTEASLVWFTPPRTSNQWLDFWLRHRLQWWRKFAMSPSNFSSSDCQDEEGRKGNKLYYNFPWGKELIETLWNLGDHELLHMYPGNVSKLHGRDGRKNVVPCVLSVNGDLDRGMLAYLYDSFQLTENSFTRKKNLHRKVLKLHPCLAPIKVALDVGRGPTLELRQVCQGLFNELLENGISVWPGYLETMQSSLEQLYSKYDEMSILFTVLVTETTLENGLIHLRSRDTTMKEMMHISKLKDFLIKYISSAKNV
run_description: EMSA
condition_label: apparent; PARP1 titrated into Pol gamma (0.5 uM)-DNA (0.75 uM); no NAD+; Buffer RX: 25 mM Hepes pH 7.5, 140 mM KCl, 5 mM MgCl2, 5% glycerol, 1 mM BME; ITC at 25 C; EMSA incubated on ice then room temperature, 4-20% native PAGE in …
experimental_endpoint: pKd
pKd is defined as minus the log10 of a concentration measured in mol/L.

Inquiry: Tell me pKd reported for CTTTTCTGGTGAAAAGCTCGTCGGCAGCGCTTGAGCAGCGGCAGCTGGTGCTGCCGCTGCTCAAGCGCTGCCGAC [d3ntgap (75-nt dumbbell with 3-nt gap)]
Reply text: 6.22

* * *

target_system: PARP1 (PARP-1);Pol gamma A (catalytic subunit);Pol gamma B deltaI4 (accessory subunit) (Homo sapiens?;Homo sapiens?;Homo sapiens?) (UniProt P09874+P54098+Q9UHN1)
run_description: ITC
condition_label: Buffer RX: 25 mM Hepes pH 7.5, 140 mM KCl, 5 mM MgCl2, 5% glycerol, 1 mM BME; ITC at 25 C; EMSA incubated on ice then room temperature, 4-20% native PAGE in …
experimental_endpoint: Kd (nM)
Give the value in nM but do not write nM after it.

Inquiry: Tell me Kd reported for CTTTTCTGGTGAAAAGCTCGTCGGCAGCGCTTGAGCAGCGGCAGCTGGTGCTGCCGCTGCTCAAGCGCTGCCGAC [d3ntgap (75-nt dumbbell with 3-nt gap)]
Reply text: 111
